- ASSAY_SYSTEM: Human μ (Homo sapiens, UniProt P35372)
- Sequence (P35372 whole entry): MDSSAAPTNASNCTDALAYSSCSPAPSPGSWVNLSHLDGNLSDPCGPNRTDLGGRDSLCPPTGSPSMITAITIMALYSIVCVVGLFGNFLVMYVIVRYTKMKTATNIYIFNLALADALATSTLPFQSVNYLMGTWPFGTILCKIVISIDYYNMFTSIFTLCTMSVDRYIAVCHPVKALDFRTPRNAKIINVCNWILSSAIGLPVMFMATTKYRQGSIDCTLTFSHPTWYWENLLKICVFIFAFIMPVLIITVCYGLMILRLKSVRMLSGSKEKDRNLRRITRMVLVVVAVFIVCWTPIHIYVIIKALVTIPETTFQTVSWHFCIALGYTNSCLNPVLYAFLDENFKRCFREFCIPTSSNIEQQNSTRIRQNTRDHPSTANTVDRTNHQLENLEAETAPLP
READOUT_TYPE: Ki

The reported Ki value, Human μ (Homo sapiens, UniProt P35372), for `COC(=O)N1CCC(CN2CCC(CNC(=O)c3cccc4[nH]c(C(C)C)nc34)CC2)CC1` reads > 1000 nM

* * *

- ASSAY_SYSTEM: Human 5-HT1A (Homo sapiens, UniProt P08908)
- Sequence (P08908 1-422): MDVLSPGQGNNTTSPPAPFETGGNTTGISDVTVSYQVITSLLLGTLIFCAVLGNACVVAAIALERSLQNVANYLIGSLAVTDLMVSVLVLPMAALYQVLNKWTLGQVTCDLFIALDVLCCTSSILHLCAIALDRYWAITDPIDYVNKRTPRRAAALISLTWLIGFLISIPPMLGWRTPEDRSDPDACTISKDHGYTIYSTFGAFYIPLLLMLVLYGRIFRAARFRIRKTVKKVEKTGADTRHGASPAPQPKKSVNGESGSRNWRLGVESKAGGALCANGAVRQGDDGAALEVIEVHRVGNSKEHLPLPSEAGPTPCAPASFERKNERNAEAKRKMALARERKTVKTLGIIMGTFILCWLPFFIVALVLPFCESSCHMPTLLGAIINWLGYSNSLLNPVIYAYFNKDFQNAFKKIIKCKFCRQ
READOUT_TYPE: Ki

So, `COC(=O)N1CCC(CN2CCC(CNC(=O)c3cccc4[nH]c(C(C)C)nc34)CC2)CC1` ? Its Ki was > 1000 nM

* * *

- ASSAY_SYSTEM: Human Y2 (Homo sapiens, UniProt P49146)
- Sequence (P49146 whole entry): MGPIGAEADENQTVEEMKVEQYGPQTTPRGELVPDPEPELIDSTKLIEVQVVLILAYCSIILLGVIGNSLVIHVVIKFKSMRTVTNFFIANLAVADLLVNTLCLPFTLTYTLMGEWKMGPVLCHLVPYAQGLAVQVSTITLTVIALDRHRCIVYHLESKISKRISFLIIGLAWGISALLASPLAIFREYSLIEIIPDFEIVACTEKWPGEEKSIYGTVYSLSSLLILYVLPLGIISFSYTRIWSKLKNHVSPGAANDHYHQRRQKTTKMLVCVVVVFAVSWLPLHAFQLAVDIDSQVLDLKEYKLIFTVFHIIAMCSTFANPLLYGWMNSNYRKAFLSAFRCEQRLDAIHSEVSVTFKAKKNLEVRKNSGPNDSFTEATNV
READOUT_TYPE: Ki

The reported Ki value, Human Y2 (Homo sapiens, UniProt P49146), for `COC(=O)N1CCC(CN2CCC(CNC(=O)c3cccc4[nH]c(C(C)C)nc34)CC2)CC1` reads > 1 µM

* * *

- ASSAY_SYSTEM: Human 5-HT2C (Homo sapiens)
- Sequence (P28335 33-458): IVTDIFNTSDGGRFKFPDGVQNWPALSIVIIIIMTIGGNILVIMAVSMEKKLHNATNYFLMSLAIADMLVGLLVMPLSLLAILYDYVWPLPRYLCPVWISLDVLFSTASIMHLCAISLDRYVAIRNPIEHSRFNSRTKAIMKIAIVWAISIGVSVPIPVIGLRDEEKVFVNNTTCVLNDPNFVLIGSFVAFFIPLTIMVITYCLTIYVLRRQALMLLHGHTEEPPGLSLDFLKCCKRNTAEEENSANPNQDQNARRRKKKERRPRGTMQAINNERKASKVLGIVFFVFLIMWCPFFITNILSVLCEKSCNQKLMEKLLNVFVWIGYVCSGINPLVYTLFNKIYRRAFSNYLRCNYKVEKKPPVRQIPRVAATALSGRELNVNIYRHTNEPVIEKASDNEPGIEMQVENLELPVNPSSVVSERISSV
- METHOD_SUMMARY: Radioligand binding: Human 5-HT2C
READOUT_TYPE: Ki

So, `COC(=O)N1CCC(CN2CCC(CNC(=O)c3cccc4[nH]c(C(C)C)nc34)CC2)CC1` ? Its Ki was > 1000 nM

* * *

- ASSAY_SYSTEM: Human M1 (Homo sapiens)
- Sequence (P11229 1-460): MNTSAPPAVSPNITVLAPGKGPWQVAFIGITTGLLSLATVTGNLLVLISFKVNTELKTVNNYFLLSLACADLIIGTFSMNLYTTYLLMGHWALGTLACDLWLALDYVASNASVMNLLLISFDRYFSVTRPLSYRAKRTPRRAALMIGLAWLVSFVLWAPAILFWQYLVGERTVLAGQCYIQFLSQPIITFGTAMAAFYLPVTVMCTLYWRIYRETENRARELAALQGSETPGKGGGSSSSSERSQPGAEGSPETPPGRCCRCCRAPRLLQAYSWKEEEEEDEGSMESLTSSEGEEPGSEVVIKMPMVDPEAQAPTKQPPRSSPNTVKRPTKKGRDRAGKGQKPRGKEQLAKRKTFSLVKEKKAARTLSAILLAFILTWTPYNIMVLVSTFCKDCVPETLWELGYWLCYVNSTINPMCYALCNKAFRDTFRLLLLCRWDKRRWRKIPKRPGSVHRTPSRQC
READOUT_TYPE: Ki

So, COC(=O)N1CCC(CN2CCC(CNC(=O)c3cccc4[nH]c(C(C)C)nc34)CC2)CC1 [TD-8954] ? Its Ki was > 1000 nM

* * *

- ASSAY_SYSTEM: Human CB1 (Homo sapiens)
- Sequence (P21554 whole entry): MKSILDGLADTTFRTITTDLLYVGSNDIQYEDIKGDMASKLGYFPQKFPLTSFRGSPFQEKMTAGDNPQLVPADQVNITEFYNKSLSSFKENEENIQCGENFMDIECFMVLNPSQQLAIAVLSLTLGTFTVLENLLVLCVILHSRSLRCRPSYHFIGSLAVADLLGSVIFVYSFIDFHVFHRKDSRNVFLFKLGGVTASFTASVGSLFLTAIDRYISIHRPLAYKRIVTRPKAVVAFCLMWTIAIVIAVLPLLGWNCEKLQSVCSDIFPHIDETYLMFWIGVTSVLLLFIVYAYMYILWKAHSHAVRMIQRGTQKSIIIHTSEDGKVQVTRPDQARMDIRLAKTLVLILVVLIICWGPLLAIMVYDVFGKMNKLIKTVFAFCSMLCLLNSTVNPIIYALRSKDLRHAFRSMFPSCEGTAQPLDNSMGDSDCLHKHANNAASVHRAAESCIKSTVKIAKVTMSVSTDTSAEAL
pKi: −log10 of the molar value.
READOUT_TYPE: pKi

So, `COC(=O)N1CCC(CN2CCC(CNC(=O)c3cccc4[nH]c(C(C)C)nc34)CC2)CC1` ? Its pKi was < 6.00

* * *

- ASSAY_SYSTEM: Human δ2 (Homo sapiens, UniProt P41143)
- Sequence (P41143 whole entry): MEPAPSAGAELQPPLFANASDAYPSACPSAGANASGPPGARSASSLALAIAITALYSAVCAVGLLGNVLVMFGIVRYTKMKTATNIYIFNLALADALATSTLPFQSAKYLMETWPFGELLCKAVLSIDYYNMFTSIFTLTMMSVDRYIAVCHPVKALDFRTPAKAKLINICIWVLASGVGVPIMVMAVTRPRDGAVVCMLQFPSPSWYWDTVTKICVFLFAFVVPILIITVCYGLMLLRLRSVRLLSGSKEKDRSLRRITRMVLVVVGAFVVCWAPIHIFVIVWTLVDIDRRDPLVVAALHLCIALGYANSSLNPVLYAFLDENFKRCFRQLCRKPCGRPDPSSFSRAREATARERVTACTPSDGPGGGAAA
READOUT_TYPE: Ki

The reported Ki value, Human δ2 (Homo sapiens, UniProt P41143), for `COC(=O)N1CCC(CN2CCC(CNC(=O)c3cccc4[nH]c(C(C)C)nc34)CC2)CC1` reads > 1000 nM

* * *

- ASSAY_SYSTEM: human 5-HT4(c) receptor (Homo sapiens, UniProt Q13639)
- Sequence (Q13639 1-380 isoform Q13639-4): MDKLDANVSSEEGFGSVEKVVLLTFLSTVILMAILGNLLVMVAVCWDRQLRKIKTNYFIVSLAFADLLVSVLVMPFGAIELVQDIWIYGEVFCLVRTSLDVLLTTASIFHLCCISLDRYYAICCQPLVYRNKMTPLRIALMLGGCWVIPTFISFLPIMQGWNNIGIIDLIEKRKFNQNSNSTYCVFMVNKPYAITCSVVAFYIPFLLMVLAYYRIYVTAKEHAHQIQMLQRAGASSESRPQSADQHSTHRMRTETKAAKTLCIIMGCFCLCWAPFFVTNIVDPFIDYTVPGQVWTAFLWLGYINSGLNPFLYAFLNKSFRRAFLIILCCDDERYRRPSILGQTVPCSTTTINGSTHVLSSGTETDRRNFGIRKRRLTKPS
READOUT_TYPE: EC50 (nM)
API: value field is a number in nM; no unit string.

The reported EC50 value, human 5-HT4(c) receptor (Homo sapiens, UniProt Q13639), for CCOc1cc(N)c(Cl)cc1C(=O)NCC1CN(Cc2ccc(F)cc2)CCO1 (stereo not shown) [Mosapride, mosapride] reads 501

* * *

- ASSAY_SYSTEM: Human CGRP (Homo sapiens, UniProt O60894+Q16602)
- METHOD_SUMMARY: Radioligand binding: Human CGRP
READOUT_TYPE: Ki

So, `COC(=O)N1CCC(CN2CCC(CNC(=O)c3cccc4[nH]c(C(C)C)nc34)CC2)CC1` ? Its Ki was > 1000 nM

* * *

- ASSAY_SYSTEM: hERG potassium channel (Homo sapiens, UniProt Q12809)
- Sequence (Q12809 whole entry): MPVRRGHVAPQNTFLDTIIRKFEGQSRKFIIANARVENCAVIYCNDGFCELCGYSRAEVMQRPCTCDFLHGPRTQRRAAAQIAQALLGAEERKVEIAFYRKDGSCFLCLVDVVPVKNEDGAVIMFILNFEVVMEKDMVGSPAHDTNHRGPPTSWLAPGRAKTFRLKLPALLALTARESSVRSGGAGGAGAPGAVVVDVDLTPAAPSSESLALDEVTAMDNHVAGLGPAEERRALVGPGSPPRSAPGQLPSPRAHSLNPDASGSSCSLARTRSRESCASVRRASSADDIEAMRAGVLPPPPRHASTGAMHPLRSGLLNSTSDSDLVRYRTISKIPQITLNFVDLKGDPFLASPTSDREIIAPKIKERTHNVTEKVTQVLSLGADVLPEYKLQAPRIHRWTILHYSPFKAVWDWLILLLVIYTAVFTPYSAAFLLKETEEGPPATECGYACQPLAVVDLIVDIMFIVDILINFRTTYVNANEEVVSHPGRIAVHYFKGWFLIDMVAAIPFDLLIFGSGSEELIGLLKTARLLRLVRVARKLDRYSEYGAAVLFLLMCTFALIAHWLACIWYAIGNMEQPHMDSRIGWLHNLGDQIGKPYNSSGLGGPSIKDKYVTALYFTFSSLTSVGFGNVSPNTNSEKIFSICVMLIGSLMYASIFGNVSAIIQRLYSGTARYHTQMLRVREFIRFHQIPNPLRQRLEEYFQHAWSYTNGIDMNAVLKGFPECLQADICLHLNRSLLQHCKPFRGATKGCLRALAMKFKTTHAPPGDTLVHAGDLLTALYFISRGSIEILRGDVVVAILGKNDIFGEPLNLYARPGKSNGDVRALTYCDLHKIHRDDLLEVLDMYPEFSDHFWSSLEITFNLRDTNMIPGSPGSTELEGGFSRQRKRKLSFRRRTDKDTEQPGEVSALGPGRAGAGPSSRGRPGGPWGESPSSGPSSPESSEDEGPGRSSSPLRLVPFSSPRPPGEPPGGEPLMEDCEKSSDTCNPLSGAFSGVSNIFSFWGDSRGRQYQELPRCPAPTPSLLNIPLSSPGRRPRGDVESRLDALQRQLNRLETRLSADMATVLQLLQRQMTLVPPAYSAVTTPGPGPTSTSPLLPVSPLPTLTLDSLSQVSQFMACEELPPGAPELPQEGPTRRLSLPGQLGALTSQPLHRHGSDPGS
- METHOD_SUMMARY: in vitro
READOUT_TYPE: inhibition at 0.02 µM
Don't forget the unit after the value.

So, COc1cc(N)c(Cl)cc1C(=O)NC1CCN(CCCOc2ccc(F)cc2)CC1OC (stereo not shown) [Cisapride, cisapride] ? Its inhibition at 0.02 µM was 65%

* * *

- ASSAY_SYSTEM: Human Y1 (Homo sapiens, UniProt P25929)
READOUT_TYPE: Ki

So, `COC(=O)N1CCC(CN2CCC(CNC(=O)c3cccc4[nH]c(C(C)C)nc34)CC2)CC1` ? Its Ki was > 1000 nM

* * *

- ASSAY_SYSTEM: Human norepinephrine transporter (Homo sapiens, UniProt P23975)
READOUT_TYPE: Ki

So, `COC(=O)N1CCC(CN2CCC(CNC(=O)c3cccc4[nH]c(C(C)C)nc34)CC2)CC1` ? Its Ki was > 1000 nM

* * *

- ASSAY_SYSTEM: Guinea pig H2 (Cavia porcellus, UniProt P47747)
READOUT_TYPE: Ki

So, `COC(=O)N1CCC(CN2CCC(CNC(=O)c3cccc4[nH]c(C(C)C)nc34)CC2)CC1` ? Its Ki was > 1 µM

* * *

- ASSAY_SYSTEM: Human β1 (Homo sapiens, UniProt P08588)
- Sequence (P08588 whole entry): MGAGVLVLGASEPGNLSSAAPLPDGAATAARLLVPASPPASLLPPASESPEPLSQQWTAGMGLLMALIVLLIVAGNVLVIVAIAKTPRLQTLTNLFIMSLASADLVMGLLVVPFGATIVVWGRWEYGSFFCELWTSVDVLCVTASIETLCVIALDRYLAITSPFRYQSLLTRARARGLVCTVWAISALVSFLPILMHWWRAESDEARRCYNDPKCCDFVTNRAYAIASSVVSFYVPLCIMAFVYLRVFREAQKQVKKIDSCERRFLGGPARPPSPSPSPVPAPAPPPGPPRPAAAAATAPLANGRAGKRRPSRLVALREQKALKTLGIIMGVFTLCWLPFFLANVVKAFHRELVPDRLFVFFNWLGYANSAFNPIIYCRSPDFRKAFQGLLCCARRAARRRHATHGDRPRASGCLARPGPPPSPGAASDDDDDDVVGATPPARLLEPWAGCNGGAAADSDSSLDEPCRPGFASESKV
READOUT_TYPE: Ki

So, `COC(=O)N1CCC(CN2CCC(CNC(=O)c3cccc4[nH]c(C(C)C)nc34)CC2)CC1` ? Its Ki was > 1000 nM

* * *

- ASSAY_SYSTEM: UniProt:P32215
- Sequence (P32215 20-523): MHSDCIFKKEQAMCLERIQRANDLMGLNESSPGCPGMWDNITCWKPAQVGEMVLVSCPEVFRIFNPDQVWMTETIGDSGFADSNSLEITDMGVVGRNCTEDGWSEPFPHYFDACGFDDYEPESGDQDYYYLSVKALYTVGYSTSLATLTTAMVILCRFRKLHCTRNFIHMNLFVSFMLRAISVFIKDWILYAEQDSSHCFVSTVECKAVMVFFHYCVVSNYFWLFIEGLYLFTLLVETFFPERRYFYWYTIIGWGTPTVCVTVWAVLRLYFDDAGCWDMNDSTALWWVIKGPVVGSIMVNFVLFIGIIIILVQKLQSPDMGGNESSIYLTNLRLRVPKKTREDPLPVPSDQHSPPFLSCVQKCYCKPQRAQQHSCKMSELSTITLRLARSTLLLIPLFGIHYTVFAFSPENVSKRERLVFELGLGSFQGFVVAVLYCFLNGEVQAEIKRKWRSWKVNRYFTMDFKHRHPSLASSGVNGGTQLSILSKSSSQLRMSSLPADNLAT
READOUT_TYPE: Ki

The reported Ki value, UniProt:P32215, for `COC(=O)N1CCC(CN2CCC(CNC(=O)c3cccc4[nH]c(C(C)C)nc34)CC2)CC1` reads > 1 µM

* * *

- ASSAY_SYSTEM: Rat dopamine transporter (Rattus norvegicus, UniProt P23977)
- Sequence (P23977 whole entry): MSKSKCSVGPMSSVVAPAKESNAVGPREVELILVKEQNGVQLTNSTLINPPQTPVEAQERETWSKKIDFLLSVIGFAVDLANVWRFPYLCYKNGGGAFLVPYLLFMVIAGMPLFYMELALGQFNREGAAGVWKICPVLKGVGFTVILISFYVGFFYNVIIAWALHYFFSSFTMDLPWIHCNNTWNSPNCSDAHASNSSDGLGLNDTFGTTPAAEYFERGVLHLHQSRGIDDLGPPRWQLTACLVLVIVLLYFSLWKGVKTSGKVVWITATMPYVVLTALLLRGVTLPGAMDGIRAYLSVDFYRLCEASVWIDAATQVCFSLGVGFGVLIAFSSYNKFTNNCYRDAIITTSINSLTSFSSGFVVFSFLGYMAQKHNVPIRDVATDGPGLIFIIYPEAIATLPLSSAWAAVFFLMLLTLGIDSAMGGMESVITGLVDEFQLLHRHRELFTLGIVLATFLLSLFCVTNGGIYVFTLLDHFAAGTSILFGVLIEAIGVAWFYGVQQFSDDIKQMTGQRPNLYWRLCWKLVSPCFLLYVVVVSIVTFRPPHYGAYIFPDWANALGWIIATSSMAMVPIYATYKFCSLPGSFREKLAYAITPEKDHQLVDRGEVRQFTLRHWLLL
READOUT_TYPE: Ki

So, COC(=O)N1CCC(CN2CCC(CNC(=O)c3cccc4[nH]c(C(C)C)nc34)CC2)CC1 [TD-8954] ? Its Ki was > 1000 nM

* * *

- ASSAY_SYSTEM: Rat α7 nAChR (α-BGTX-sensitive) (Rattus norvegicus)
READOUT_TYPE: Ki

The reported Ki value, Rat α7 nAChR (α-BGTX-sensitive) (Rattus norvegicus), for `COC(=O)N1CCC(CN2CCC(CNC(=O)c3cccc4[nH]c(C(C)C)nc34)CC2)CC1` reads > 1000 nM

* * *

- ASSAY_SYSTEM: Human 5-HT7 (Homo sapiens, UniProt P34969)
- METHOD_SUMMARY: Radioligand binding: Human 5-HT7
pKi: −log10 of the molar value.
READOUT_TYPE: pKi

The reported pKi value, Human 5-HT7 (Homo sapiens, UniProt P34969), for COC(=O)N1CCC(CN2CCC(CNC(=O)c3cccc4[nH]c(C(C)C)nc34)CC2)CC1 [TD-8954] reads < 6.00

* * *

- ASSAY_SYSTEM: UniProtKB P08912
- Sequence (P08912 1-532): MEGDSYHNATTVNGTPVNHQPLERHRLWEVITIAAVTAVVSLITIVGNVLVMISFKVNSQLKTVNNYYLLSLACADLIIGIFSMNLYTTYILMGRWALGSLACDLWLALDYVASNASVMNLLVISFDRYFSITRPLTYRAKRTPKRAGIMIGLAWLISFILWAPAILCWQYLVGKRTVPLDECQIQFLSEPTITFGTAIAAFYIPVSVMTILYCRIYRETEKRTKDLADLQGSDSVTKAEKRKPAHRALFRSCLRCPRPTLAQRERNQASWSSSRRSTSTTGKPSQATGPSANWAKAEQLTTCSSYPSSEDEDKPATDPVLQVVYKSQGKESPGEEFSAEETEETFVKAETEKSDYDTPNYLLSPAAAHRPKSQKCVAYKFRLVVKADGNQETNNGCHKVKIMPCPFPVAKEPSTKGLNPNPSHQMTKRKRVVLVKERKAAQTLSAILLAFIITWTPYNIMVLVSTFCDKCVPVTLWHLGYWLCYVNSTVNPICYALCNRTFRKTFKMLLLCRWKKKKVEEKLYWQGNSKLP
pKi: −log10 of the molar value.
READOUT_TYPE: pKi

So, COC(=O)N1CCC(CN2CCC(CNC(=O)c3cccc4[nH]c(C(C)C)nc34)CC2)CC1 [TD-8954] ? Its pKi was < 5.00

Cited source for all entries: paper PMC3108484
